Source listed as a melting point compilation (Tetko et al.; mined from patent text by program, amines drawn as free bases though some values may be those of a salt).

Measurement type: melting point

{"Compound": "Nc1cc(O)c(C(=O)NCC2CN(Cc3ccccc3)CCO2)cc1Cl (stereo not drawn)", "Result": "153 to 155 °C"}

Tell me measured melting point for CS(=O)(=O)Nc1cc2occ(C(N)=O)c(=O)c2cc1Oc1ccccc1 please.
> 250 °C

Identify the reported melting point for the following entry. O=S1(=O)NCN(CCF)c2ccc(I)cc21
156 to 158 °C

Please list melting point recorded for the compound O=C(Cc1ccc(OCc2ccccc2)cc1)NC1(C(=O)O)Cc2ccc(-c3ccc(Cl)cc3)cc2C1 (stereo not drawn)
234 °C

Give a short answer stating reported melting point for CC(C)n1nc(-c2c(OCc3ccccn3)nc(N)nc2-c2ccccc2)ccc1=O .
177 to 178 °C

Quickly give me recorded melting point for COC(=O)c1ccc(/C=C/c2cc3c(cc2CCCO)C(C)(C)CCC3(C)C)cc1
109 to 116 °C

---

The compounds listed here are annotated with their melting point.

{"Compound": "COC(=O)NC(C)(C(=O)NS(=O)(=O)c1ccc(C)cc1)C(C)C (stereo not given)", "melting point": "120 to 122 °C"}
{"Compound": "CCOC(=O)CCCCCCCSc1nc(-c2ccccc2)c(-c2ccccc2)[nH]1", "melting point": "77 to 79 °C"}

Entry Clc1ccc(CNc2cccnc2)cc1 needs its melting point filled in; supply it.
107 to 108 °C

Given CC(C)(C)c1cc(C(=O)ON(Cc2ccccc2)Cc2ccccc2)cc(C(C)(C)C)c1O , respond with its melting point.
90 to 92 °C

Please list melting point recorded for the compound NC(=O)CCC(=NNC(N)=S)c1ccccc1
186 to 188 °C

---

Measurement type: melting point

Solved entries (count: 4):
{"Compound": "O=C1CN=C(c2ccccc2)c2cc(C(=O)c3ccc(Cl)cc3)ccc2N1", "Measurement type": "melting point", "Result": "230 °C"}
{"Compound": "CN(C)C(=O)CC(=O)c1ccc(C(=O)CC(=O)N(C)C)cc1", "Measurement type": "melting point", "Result": "188 to 189 °C"}
{"Compound": "COc1ccc(CCNc2ncnc3occc23)cc1", "Measurement type": "melting point", "Result": "135 to 136 °C"}
{"Compound": "CC(O)c1nnc2n1-c1sc(Cl)cc1C(c1ccccc1Cl)=NC2 (stereo not given)", "Measurement type": "melting point", "Result": "118 to 120 °C"}

Let's switch to this compound now.
// Input: COC(=O)c1cc(Cl)ccc1-n1c(C)nnc1CCl . Output its melting point only.
123 to 124 °C

---

Listed below: melting point values for each entry.

{"Compound": "COc1cc2cc3c(=O)c(C#N)c[nH]c3cc2cc1OCc1ccccc1", "melting point": "> 300 °C"}

Give the value of melting point reported for the following: CS(=O)(=O)NCCCCn1c(CC2CC2)nc2c(N)nc3ccccc3c21
200 to 201 °C

Quick one: give measured melting point for O=c1c2ccc(Cl)cc2[nH]n2cccc12
> 300 °C

Supply recorded melting point for CCCc1cc(CCCOc2c(C)cc(-c3noc(C)n3)cc2C)on1 here.
69 to 70 °C

Identify measured melting point corresponding to Cc1cc([N+](=O)[O-])cnc1CCCC#N
51.5 to 53 °C

Return melting point for the following compound: O=Cc1sc2ccccc2c1-c1ccccc1
86 to 89 °C

Give me measured melting point, please, for this compound: Cc1ccc(C(=O)Nc2ccc(C#N)cc2)cc1Nc1ncc(-c2cccnc2)o1
203 °C

Supply reported melting point belonging to this compound: CC(=O)c1cc(O)c(-c2ccccc2)cc1O
169 °C

Answer with reported melting point of CCOc1cc(C(=O)N2CCN(C(=O)C3=Cc4cc(OC)c(OC)cc4CCC3)CC2)cc(OCC)c1OCC
125 to 126 °C

Output melting point of O=C(O)CCSC1c2ccccc2COc2ccc(OCc3ccc4cc(Cl)ccc4n3)cc21 (configuration not stated)
178 to 180 °C

Look up melting point of N#Cc1c(Nc2ccccc2)nn(Cc2ccccc2)c1N and report it.
139 to 140 °C

Determine its reported melting point: CCOC(=O)CCCCCCCn1cnc(-c2ccccc2)c1
56 to 57 °C

---

Overview of recorded melting point for various molecules

Here is how some molecules turned out for melting point.
{"Molecule": "Nc1cc(=O)n(-c2c(Cl)cc(C(F)(F)F)cc2Cl)[nH]1", "Result": "206 to 207 °C"}
{"Molecule": "COC(=O)CCCc1cc2nc(C(F)(F)F)ccc2[nH]1", "Result": "137 °C"}
{"Molecule": "O=C(NC/C=C/c1ccccc1)c1ccccc1F", "Result": "68 °C"}
{"Molecule": "Cc1ccc(CNC(=O)c2ccc3n2Cc2ccccc2N(C(=O)COc2ccc(Cl)cc2)C3)cc1", "Result": "174 to 176 °C"}

Supply measured melting point of CNC(=O)C1=CC2(CCSCC2)Oc2ccc([N+](=O)[O-])cc21 in your reply.
208 to 209 °C

Provide melting point value for the following molecule: COc1ccccc1N1CCN(CCCN2C(=O)c3ccccc3C2=O)CC1
85 to 93 °C

Read off the recorded melting point for CC(C)Cn1c(CO)c(-c2cccc(F)c2)c2cc(OCc3ccccc3)ccc2c1=O
146 °C

Provide measured melting point value, entry: NS(=O)(=O)c1ncccc1F
124 to 125 °C

# return recorded melting point for entry CN1CCN(c2nc3sc4c(NCc5ccccn5)ncnc4c3c3c2COC(C)(C)C3)CC1
218 to 219 °C

---

Recorded melting point for the following compounds

Previously resolved entries follow.
{"Compound": "COc1cc(C(=O)c2c[nH]c(-c3ccc(Cl)cc3)n2)cc(OC)c1OC", "melting point": "193 to 195 °C"}
{"Compound": "CC(N)c1ccc2c(c1)C(c1ccccc1F)=NC(C)(C)C(=O)N2C (configuration not stated)", "melting point": "50 to 51 °C"}
{"Compound": "N=c1sc2cc(OC(F)(F)F)ccc2n1CCSCc1ccccn1", "melting point": "125 °C"}
{"Compound": "COc1ccc(C(C)=O)c2c1CCN2C(C)=O", "melting point": "88 to 89 °C"}
{"Compound": "COc1ccc(NC(=O)c2ccc(F)c(F)c2)cc1NS(=O)(=O)c1cccc([N+](=O)[O-])c1", "melting point": "150 to 160 °C"}
{"Compound": "CC(=O)c1cccc(-c2ccc(COc3ccc(C(=O)O)c(O)c3)cc2)c1", "melting point": "215 to 220 °C"}
{"Compound": "O=S(=O)(c1ccc(Cl)cc1)C(c1cc(F)ccc1F)c1ccncc1Cl (configuration not stated)", "melting point": "160 to 161 °C"}
{"Compound": "Cc1nc2ccccn2c1CN1CCC(Nc2nc3ccccc3n2Cc2ccc(F)cc2)CC1", "melting point": "198 °C"}
{"Compound": "O=C(O)Cc1cc(Cl)cc2c(-c3ccccc3)onc12", "melting point": "188 to 190 °C"}
{"Compound": "COc1ccc(Br)c(C=O)c1OC", "melting point": "92 to 93 °C"}

Entry C=CCOc1ccc(OC(C(O)C(C)(C)C)n2cncn2)cc1 (configuration not stated) needs its melting point filled in; supply it.
85 °C

Supply measured melting point of COC1=C(OC)C(=O)C(CCCCCCCCCCCOC(C)=O)=C(C)C1=O in your reply.
41 °C

Report melting point for Nc1c(Cl)cc(C(=O)NC2CCN(CCO)CC2)c2c1CCO2
186 °C

Give the measured melting point for COc1ccc(CCc2ccc(N)cc2)cc1OC
115 to 116 °C

Supply measured melting point of O=C1OCc2c1cc1ccc3c(c1c2-c1ccc(F)cc1)OCO3 in your reply.
215 to 218 °C

Answer with reported melting point of Brc1cccc(Sc2ccccc2)n1
47 °C

---

Measurement type: melting point

Reference set (3 entries):
{"Compound": "CCCCNc1c(C#N)cnc2cc(F)c(OC)cc12", "melting point": "155 to 156 °C"}
{"Compound": "CS(=O)(=O)Oc1cccc(N2CCN(CCCCCC(=O)N3Cc4ccccc4C3)CC2)c1", "melting point": "141 °C"}
{"Compound": "CCCc1csc2ncc(C(=O)OC)n12", "melting point": "149 to 150 °C"}

Let me know recorded melting point for CC(=O)Nc1c(C(=O)c2cccc(S(N)(=O)=O)c2)[nH]c2cc(Cl)ccc12 , thanks.
250 to 251 °C

Kindly indicate its recorded melting point. Item: Cc1nc(N2CCCC(Cc3cc(F)ccc3F)C2=O)sc1C(=O)NCc1ccccc1 (stereo not drawn)
144 to 145 °C

// Input: CCCCCCCCCCCCc1c[nH]c(C(=O)NN)c1 . Output its melting point only.
137 to 140 °C

Provide only the value of recorded melting point for COc1ccnc(CCc2nc3cc(-c4ccoc4)cnc3[nH]2)c1
193 to 194 °C

---

Overview of recorded melting point for various compounds

{"Molecular string": "Cc1cnc(-n2cc(C(F)(F)F)cn2)nc1Oc1cccc(C(F)(F)F)c1", "melting point": "103 to 105 °C"}

Query compound follows.
Let me know recorded melting point for CCCC(=O)c1ccc(NC(=S)N2CCN(c3ncnc4cc(OC)c(OC)cc34)CC2)cc1 , thanks.
218 to 219 °C
